The origin of these recorded values is the NIST ThermoML archive (doi:10.1021/je100823t).

Quick reference: viscosity of the listed items.
reportedConditions: 318.15 K; 101 kPa; Liquid; Capillary tube (Ostwald / Ubbelohde) method
Numbers after ± are expanded uncertainties.
observationType: viscosity

# molecule, val
measured = [
    ("Cc1cccc(C)c1 [1,3-dimethylbenzene]", "0.47 ± 0.011 mPa·s"),
    ("Cc1ccccc1C [1,2-dimethylbenzene]", "0.591 ± 0.012 mPa·s"),
    ("Cc1ccc(C)cc1 [1,4-dimethylbenzene]", "0.486 ± 0.012 mPa·s"),
    ("CCCCCCO [hexan-1-ol]", "2.518 ± 0.031 mPa·s"),
]

---

reportedConditions: 318.15 K; 101 kPa; Liquid; Pycnometric method
± gives the expanded uncertainty stated by the source.

# molecule, mass density
records = [
    ("Cc1cccc(C)c1 [1,3-dimethylbenzene]", "842.7 ± 1.1 kg/m3"),
    ("CCCCCCO [hexan-1-ol]", "801.2 ± 1 kg/m3"),
    ("Cc1ccc(C)cc1 [1,4-dimethylbenzene]", "839.5 ± 1.1 kg/m3"),
    ("Cc1ccccc1C [1,2-dimethylbenzene]", "858.4 ± 1.1 kg/m3"),
]
